- Protocol description: HepG2 liver cancer cell viability effects, profiling panel, resazurin fluorescence, 24 h, PK04 Diversity Set (AID 1172); note: test concentration not given here
- Protocol conditions: higher = more signal
The label depends only on z-score: Condition met if it is at least -0.4, Condition not met if it is smaller.

Solved cases below.
# Compound, Category label
data = [
    ("C=CCOC(=O)[C@H]1[C@@H]2C(=O)O[C@@H](c3ccccc3)[C@@H](c3ccccc3)N2[C@@H](c2ccc(OCCOC(=O)[C@H]3C[C@H]4C(=O)N[C@@H](CCCC[N+](C)(C)C)C(=O)N4[C@H]3c3cccc(OCCO)c3)cc2)[C@]12C(=O)Nc1ccc(I)cc12", "Condition met"),
    ("C=C(/C(=C/C[C@@H](OC(=O)c1ccncc1)c1ccccc1OCCO)c1cc(C(=O)OC)ccc1OC)C(C)C", "Condition met"),
    ("C=C[C@@H](COC(C)=O)NS(=O)(=O)c1ccc(Br)cc1", "Condition not met"),
    ("COCCCNC(=O)[C@@]1(Sc2ccc(C)cc2)CC(=O)N(C2Cc3ccccc3C2)[C@@H]1c1ccc(CO)cc1I", "Condition met"),
    ("CC(C)(C)OC(=O)CC[C@]1(C(=O)NCCN2CCOCC2)N=C(c2ccc(OCCCO)cc2)O[C@H]1c1ccccc1", "Condition met"),
]

Kindly review the next compound as well.
Prompt: Please tell me: is the compound "[N-]=[N+]=NCc1ccccc1C[C@@]1(C(N)=O)N=C(c2ccc(OCCCO)cc2)O[C@@H]1c1ccccc1CN=[N+]=[N-]" at or over -0.4 in terms of z-score?
Completion: Condition met

---

Catalogue of composite z-score readings, one per entry.
- Experimental target: Dihydroorotate dehydrogenase (quinone), mitochondrial (Plasmodium falciparum (isolate 3D7)) (UniProt Q08210)
- Sequence (Q08210 whole entry, looked up): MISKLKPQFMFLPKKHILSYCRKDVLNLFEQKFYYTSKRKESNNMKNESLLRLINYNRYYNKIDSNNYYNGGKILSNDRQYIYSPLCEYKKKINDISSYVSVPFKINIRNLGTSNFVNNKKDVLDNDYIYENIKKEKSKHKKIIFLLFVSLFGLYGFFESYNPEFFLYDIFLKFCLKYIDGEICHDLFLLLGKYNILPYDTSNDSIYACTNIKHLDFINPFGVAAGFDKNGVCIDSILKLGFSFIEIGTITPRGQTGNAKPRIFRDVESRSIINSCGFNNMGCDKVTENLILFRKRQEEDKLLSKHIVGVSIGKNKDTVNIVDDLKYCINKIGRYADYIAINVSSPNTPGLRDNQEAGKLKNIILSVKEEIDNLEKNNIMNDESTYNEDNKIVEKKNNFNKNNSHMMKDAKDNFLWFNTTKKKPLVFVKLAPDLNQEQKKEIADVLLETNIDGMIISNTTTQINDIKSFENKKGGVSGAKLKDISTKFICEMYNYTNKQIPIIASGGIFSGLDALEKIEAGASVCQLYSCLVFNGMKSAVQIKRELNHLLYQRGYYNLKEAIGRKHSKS
- Protocol description: PfDHODH enzyme inhibitors, primary screen, biochemical, C-terminal His tag, absorbance 600 nm (AID 1175);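 note: recombinant parasite enzyme with a five histidine tag at its C terminus; test concentration not given here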
- Protocol conditions: DCIP absorbance 600 nm, higher = more signal, called active from +8 up or from −8 down
Lab note: jot down the number only; don't add units.

# Compound, composite z-score
records = [
    ("[N-]=[N+]=NCc1ccccc1C[C@]1(C(=O)NCC(O)CO)N=C(c2ccc(OCCCO)cc2)O[C@H]1c1ccccc1CN=[N+]=[N-] (some centres undefined)", -0.212),
]

Prompt: Entry "C=C(CCCC)C(=O)CC[C@@H](OC(=O)c1cccnc1)c1ccccc1OCCO" has what composite z-score?
Completion: -2.63

Prompt: Now consider "CCOC(=O)C[C@H]1[C@H](OC(=O)c2ccc(C(=O)c3ccccc3)cc2)[C@@H](NC(=O)c2ccc3ccccc3c2)c2cc(OCCCO)ccc2N1C(=O)c1ccccc1" and answer again.
Completion: -0.46

Prompt: Now consider C=CC1c2cc(O)c(OC)cc2CCN1Cc1sc2ccccc2c1Cl (centres undefined) and answer again.
Completion: -1.04

Prompt: Now consider "COC(=O)[C@H](Cc1ccccc1)N1CC(/C=C/C2CC2)=C[C@@H]1[C@@H](O)Cc1ccccc1" and answer again.
Completion: 0.114

Prompt: Now consider CC(CO)N1C(=O)[C@@H]2C3C(=O)OCCC/C=C\[C@H]3OC23C=CCN(Cn2nnc4ccccc42)C(=O)[C@@H]13 (some centres undefined) and answer again.
Completion: -2.72

Prompt: Now consider "COCCOC(=O)N1C(=O)[C@@]2(c3cc(C#Cc4ccc(OC)cc4)ccc31)[C@H](C(=O)N1CCCCCCC1)[C@H]1C(=O)O[C@H](c3ccccc3)[C@H](c3ccccc3)N1[C@@H]2c1ccc(O)cc1" and answer again.
Completion: -0.458

Prompt: Now consider "[N-]=[N+]=NCc1ccccc1C[C@@]1(C(=O)NCCN2CCOCC2)N=C(c2ccc(OCCCO)cc2)O[C@@H]1c1ccccc1N=[N+]=[N-]" and answer again.
Completion: 0.699

Prompt: Now consider "C[N+](C)(C)CCCC[C@@H]1NC(=O)[C@@H]2C[C@H](C(=O)O)[C@H](c3ccc(O)cc3)N2C1=O" and answer again.
Completion: -11.6

Prompt: Now consider "Cc1ccc(S[C@]2(C(=O)NCC(C)C)CC(=O)N(Cc3ccccc3Cl)[C@@H]2c2ccc(CO)cc2I)cc1" and answer again.
Completion: -0.0436

Prompt: Now consider "COCCCNC(=O)[C@@]1(Sc2ccc(C)cc2)CC(=O)N(Cc2cc(C(F)(F)F)cc(C(F)(F)F)c2)[C@@H]1c1ccc(CO)cc1" and answer again.
Completion: -0.669

Prompt: Now consider CC(=O)n1cc(C(O)C2C=CC3C(=O)N(Cc4ccccc4)C(=O)C3N2n2cnnc2)c2ccccc21 (centres undefined) and answer again.
Completion: -0.351

Prompt: Now consider "COC(=O)Cn1c(C(=O)N2CCCC2)cc2c1C[C@H]1CN(C(=O)c3ccccc3)[C@@](Cc3ccc(F)cc3)(C(=O)OC)[C@@H]21" and answer again.
Completion: -0.653

Prompt: Now consider "COCCOC(=O)N1C(=O)[C@@]2(c3cc(C#CC4(O)CCCCCC4)ccc31)[C@H](C(N)=O)[C@H]1C(=O)O[C@H](c3ccccc3)[C@H](c3ccccc3)N1[C@@H]2c1ccc(O)cc1" and answer again.
Completion: -0.942
